Biological target: Carboxylesterase/lipase Culp6 (Mycobacterium tuberculosis (strain ATCC 25618 / H37Rv), UniProt O53581)
Sequence (O53581 whole entry): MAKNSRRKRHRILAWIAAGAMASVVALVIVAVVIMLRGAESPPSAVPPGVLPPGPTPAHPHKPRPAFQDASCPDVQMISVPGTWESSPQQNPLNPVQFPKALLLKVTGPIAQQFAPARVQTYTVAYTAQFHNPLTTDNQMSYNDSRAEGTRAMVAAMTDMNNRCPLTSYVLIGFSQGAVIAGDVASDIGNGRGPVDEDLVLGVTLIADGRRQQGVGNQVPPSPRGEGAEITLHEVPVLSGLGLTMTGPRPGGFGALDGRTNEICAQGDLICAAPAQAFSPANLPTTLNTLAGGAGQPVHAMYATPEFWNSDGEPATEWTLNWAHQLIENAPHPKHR
Assay: Inhibition of recombinant Mycobacterium tuberculosis H37Rv ATCC 25618 Rv3802c expressed in Escherichia coli T7 assessed as residual activity by measuring hydrolysis of resorufin butyrate at 500 uM using resorufin butyrate as substrate preincubated for 15 mins followed by substrate addition relative to control
Settings: read-out: Activity
Exercise: for every item that follows, state its recorded activity at 500 µM.
Give me the value, and tack the unit on after it.

Solved entries:
# structure, activity at 500 µM
rows = [
    ("O=C(NCc1ccco1)Nc1ccc(C(F)(F)F)cc1", "82%"),
    ("O=C(NCc1cccs1)Nc1ccccc1", "50.5%"),
    ("O=C(NCc1ccco1)Nc1ccccc1", "38.2%"),
    ("O=C(NCC1CCCCC1)Nc1ccccc1", "53%"),
    ("O=C(NCC1CCCCC1)Nc1ccc(C(F)(F)F)cc1", "83.6%"),
    ("O=C(Nc1ccccc1)NC1CCCC1", "56.2%"),
]

Form field: reported activity at 500 µM of `O=C(Nc1ccccc1)N1CCCCC1` 43%

---

Assignment: determine reported activity at 500 µM for the given molecules.
Molecular target: Carboxylesterase/lipase Culp6 (Mycobacterium tuberculosis (strain ATCC 25618 / H37Rv))
Assay: Inhibition of recombinant Mycobacterium tuberculosis H37Rv ATCC 25618 Rv3802c expressed in Escherichia coli T7 assessed as residual activity by measuring hydrolysis of resorufin butyrate at 500 uM using resorufin butyrate as substrate preincubated for 15 mins followed by substrate addition relative to control
Settings: read-out: Activity
Include the unit right after the number.

Reference set (4 entries):
# structure, activity at 500 µM
measured = [
    ("O=C(NCc1ccco1)Nc1ccc(F)cc1", "54.9%"),
    ("O=C(Nc1ccccc1)NC1CCCCC1", "84.3%"),
    ("O=C(NCC1CCCCC1)Nc1cc(F)cc(F)c1", "72.5%"),
    ("O=C(NCC1CCCCC1)Nc1ccc(F)cc1", "66%"),
]

Please state, for each entry, its recorded activity at 500 µM.
1. O=C(NCC1CCCCC1)Nc1ccc(Br)cc1
2. O=C(NCCc1ccccc1)Nc1ccccc1

1: 100%; 2: 73.1%

Request body: readout activity at 500 µM, system Carboxylesterase/lipase Culp6 (Mycobacterium tuberculosis (strain ATCC 25618 / H37Rv)), query `O=C(NCc1ccco1)Nc1cc(F)cc(F)c1` . Return the value. 13%

---

Target: Carboxylesterase/lipase Culp6 (Mycobacterium tuberculosis (strain ATCC 25618 / H37Rv), UniProt O53581)
Test: Inhibition of recombinant Mycobacterium tuberculosis H37Rv ATCC 25618 Rv3802c cutinase expressed in Escherichia coli T7 assessed as inhibition constant using resorufin butyrate as substrate preincubated for 15 mins followed by substrate addition
measurementName: Ki (µM)
Give bare numbers, in µM.

What Ki value was documented for this molecule, `O=C(NCc1ccco1)Nc1cc(F)cc(F)c1` ? 5.2

---

Molecular target: Carboxylesterase/lipase Culp6 (Mycobacterium tuberculosis (strain ATCC 25618 / H37Rv), UniProt O53581)
Assay: Inhibition of recombinant Mycobacterium tuberculosis H37Rv ATCC 25618 Rv3802c expressed in Escherichia coli T7 assessed as residual activity by measuring hydrolysis of resorufin butyrate at 200 uM using resorufin butyrate as substrate preincubated for 15 mins followed by substrate addition by relative to control
Conditions: read-out: Activity
measurementName: activity at 200 µM (%)
Give bare numbers, in %.

Example entries begin here.
# structure, measuredNumber
rows = [
    ("O=C(Nc1cc(F)cc(F)c1)N(Cc1ccc(F)cc1)Cc1ccco1", 100),
    ("O=C(NCc1ccco1)n1ccnn1", 72.5),
    ("O=C(NCc1ncc[nH]1)Nc1cc(F)cc(F)c1", 100),
]

Report activity at 200 µM for each item below.
1. O=C(Nc1cc(F)cc(F)c1)N(Cc1ccco1)Cc1ccco1
2. O=C(NCc1nc2ccccc2[nH]1)Nc1cc(F)cc(F)c1

1: 100; 2: 20

Report activity at 200 µM for every entry below.
1. O=C(NCc1ccco1)n1nnc2ccccc21
2. O=C(NCC1CCCCC1)n1nnc2ccccc21
3. CSc1nncn1C(=O)NCC1CCCCC1

44
43
40
